Biological target: Fructofuranosidase activity of the F-3 fraction of S. occidentalis (Schwanniomyces occidentalis)
Construct: the enzyme object of the invention is extracellularly released; endogenous in cells; host or cells: Schwanniomyces occidentalis culture supernatant; concentrated (F-1), then DEAE-Sephacel at pH 7 (F-2) and at pH 5 (F-3)
Sequence (P24133 other isoform, or with tags, fused parts or gaps with the stated changes): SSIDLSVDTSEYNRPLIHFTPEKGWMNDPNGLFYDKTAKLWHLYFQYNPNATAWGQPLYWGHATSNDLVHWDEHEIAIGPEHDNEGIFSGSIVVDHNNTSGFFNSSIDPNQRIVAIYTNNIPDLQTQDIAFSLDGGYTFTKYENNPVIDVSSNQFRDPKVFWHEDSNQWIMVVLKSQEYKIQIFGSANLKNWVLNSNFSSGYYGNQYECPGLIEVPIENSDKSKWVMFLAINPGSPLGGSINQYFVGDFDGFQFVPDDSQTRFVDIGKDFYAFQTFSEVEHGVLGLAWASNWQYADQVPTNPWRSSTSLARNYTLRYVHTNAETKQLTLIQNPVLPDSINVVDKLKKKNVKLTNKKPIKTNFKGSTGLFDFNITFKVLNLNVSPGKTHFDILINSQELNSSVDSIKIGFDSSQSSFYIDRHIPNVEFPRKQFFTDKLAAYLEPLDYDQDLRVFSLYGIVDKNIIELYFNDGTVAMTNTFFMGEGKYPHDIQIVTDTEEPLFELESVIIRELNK
Assay: Fructofuranosidase (hydrolytic) activity of the purified enzyme F-3 on different substrates
Format: biochemical
Details: purified protein F-3; 1% substrate
MEASURED PARAMETER: Activity specific (mU/μg)
A number alone suffices; assume mU/μg.

Recorded results for 2 compounds are shown here.
- COMPOUND: "OC[C@H]1O[C@H](OC[C@H]2O[C@H](O[C@]3(CO)O[C@H](CO)[C@@H](O)[C@@H]3O)[C@H](O)[C@@H](O)[C@@H]2O)[C@H](O)[C@@H](O)[C@H]1O [raffinose]"
  Activity specific, mU/μg: 7.5
- COMPOUND: "OC[C@H]1O[C@@](CO)(OC[C@@]2(OC[C@@]3(O[C@H]4O[C@H](CO)[C@@H](O)[C@H](O)[C@H]4O)O[C@H](CO)[C@@H](O)[C@@H]3O)O[C@H](CO)[C@@H](O)[C@@H]2O)[C@@H](O)[C@@H]1O [nystose]"
  Activity specific, mU/μg: 6.2

Query: Bench note: what Activity specific did OC[C@H]1O[C@@](CO)(O[C@H]2O[C@H](CO)[C@@H](O)[C@H](O)[C@H]2O)[C@@H](O)[C@@H]1O [sucrose, α-D-Glu-(1→2)-β-D-Fru] show?
Reply: 109

Query: Would you mind telling me what Activity specific value was observed for OC[C@H]1O[C@@](CO)(OC[C@@]2(O[C@H]3O[C@H](CO)[C@@H](O)[C@H](O)[C@H]3O)O[C@H](CO)[C@@H](O)[C@@H]2O)[C@@H](O)[C@@H]1O [1-kestose, β-D-Fru-(2→1)-β-D-Fru-(2→1)-α-D-Glu] ?
Reply: 6.3
